The reported measurements were obtained from PubChem BioAssay AID1946.

TARGET_OF_ASSAY: Potassium voltage-gated channel subfamily KQT member 2 (Rattus norvegicus) (UniProt O88943)
Sequence (O88943 whole entry, looked up): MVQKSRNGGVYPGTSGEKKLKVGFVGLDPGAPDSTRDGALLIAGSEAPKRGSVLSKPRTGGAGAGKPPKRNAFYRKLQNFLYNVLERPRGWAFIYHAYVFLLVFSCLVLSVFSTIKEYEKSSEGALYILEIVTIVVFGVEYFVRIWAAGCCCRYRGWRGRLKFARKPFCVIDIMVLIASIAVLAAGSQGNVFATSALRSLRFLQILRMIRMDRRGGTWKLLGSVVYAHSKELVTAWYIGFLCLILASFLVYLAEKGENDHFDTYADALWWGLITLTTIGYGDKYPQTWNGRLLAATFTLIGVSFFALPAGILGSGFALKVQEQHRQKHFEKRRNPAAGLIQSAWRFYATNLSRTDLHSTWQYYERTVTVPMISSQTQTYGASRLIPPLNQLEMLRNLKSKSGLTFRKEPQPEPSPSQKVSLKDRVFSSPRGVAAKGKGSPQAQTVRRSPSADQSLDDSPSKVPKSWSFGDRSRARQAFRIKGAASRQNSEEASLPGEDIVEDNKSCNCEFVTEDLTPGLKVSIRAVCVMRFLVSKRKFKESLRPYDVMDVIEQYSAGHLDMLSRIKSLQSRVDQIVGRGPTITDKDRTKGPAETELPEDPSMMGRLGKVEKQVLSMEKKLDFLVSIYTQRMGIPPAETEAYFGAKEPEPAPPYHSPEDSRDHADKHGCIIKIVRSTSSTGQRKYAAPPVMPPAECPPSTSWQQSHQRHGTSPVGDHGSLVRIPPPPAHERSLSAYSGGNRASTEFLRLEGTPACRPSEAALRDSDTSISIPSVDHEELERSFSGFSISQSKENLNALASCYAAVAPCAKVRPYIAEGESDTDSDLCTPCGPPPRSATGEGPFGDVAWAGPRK
TEST_DESCRIPTION: KCNQ2 blockade in CHO cells – cell-based, FluxOR thallium flux, counter-screen for hERG block protector project, confirmation (AID 1946)
EXPERIMENTAL_CONDITIONS: FluxOR thallium flux fluorescence, at 10 µM, hits give low values, zero marks the 3-SD hit cutoff
In all, about 2,400 compounds went through this assay and about 180 (7.5%) were called active. The full list was thinned out, with actives kept by preference.
METRIC_NAME: activity change vs negative control (%)
Give bare numbers, in %.

Completed entries (count: 10):
COMPOUND: COc1cccc(C(=O)NNC(=O)C(=O)Nc2ccc(C)cc2)c1
activity change vs negative control [%]: 99.7
//
COMPOUND: COC(=O)C1=C(C)NC2=C(C(=O)CCC2)C1c1ccc(-c2ccsc2C(=O)OC)o1 (stereo not drawn)
activity change vs negative control [%]: 75.1
//
COMPOUND: Cn1cc(CCC(=O)N2CCCC(Nc3ccc(F)cc3)C2)cn1 (stereo not drawn)
activity change vs negative control [%]: -2
//
COMPOUND: O=C(NC(=S)N(CCc1ccccc1)CCc1ccccc1)c1ccco1
activity change vs negative control [%]: 67.4
//
COMPOUND: ON/C=N/C(=S)Nc1ncc(C(F)(F)F)cc1Cl
activity change vs negative control [%]: 49.3
//
COMPOUND: Cc1ccc(C(C)NC(=O)C2CCCC2)cc1C (stereo not drawn)
activity change vs negative control [%]: 66.7
//
COMPOUND: CC12CCC(C(=O)NCc3ccc4c(c3)OCO4)(CC1=O)C2(C)C (stereo not drawn)
activity change vs negative control [%]: 9.1
//
COMPOUND: COc1cc2c(cc1OC)C(c1ccc([N+](=O)[O-])cc1)N(C(C)=O)CC2 (stereo not drawn)
activity change vs negative control [%]: -4
//
COMPOUND: COc1ccc(NC(=O)N2CCN(c3ccc([N+](=O)[O-])cc3)CC2)cc1OC
activity change vs negative control [%]: 8.2
//
COMPOUND: C=CCn1c(=S)[nH]c2cc(-c3ccccc3)sc2c1=O
activity change vs negative control [%]: 17.5

Please give activity change vs negative control for each item listed below.
1. Cc1ccc(-c2csc(=S)[nH]2)cc1
2. S=C(N/N=C/c1ccccc1Cl)Nc1cccc(Cl)c1Cl
3. O=c1c(-c2cccc3ccccc23)[n+]([O-])c2ccccc2n1O
4. COc1ccccc1Cn1c(=S)[nH]c2ccc(Br)cc2c1=O
5. O=C(NC(=S)N(CC1CCC1)CC1CCCO1)c1cccc([N+](=O)[O-])c1 (stereo not drawn)
6. CCOC(=O)C1CCCN(C(=S)NC(=O)/C=C/c2ccc(F)cc2)C1 (stereo not drawn)
7. CCSc1nc(=S)cc(C)[nH]1
8. COC(=O)c1c(NC(=S)Nc2ccc(F)cc2[N+](=O)[O-])sc2c1CCCCC2

1. 106
2. 30.4
3. 27.4
4. 7.2
5. 63.2
6. 1.2
7. 78.1
8. 25.2

###

TARGET_OF_ASSAY: Potassium voltage-gated channel subfamily KQT member 2 (Rattus norvegicus) (UniProt O88943)
TEST_DESCRIPTION: KCNQ2 blockade in CHO cells – cell-based, FluxOR thallium flux, counter-screen for hERG block protector project, confirmation (AID 1946)
EXPERIMENTAL_CONDITIONS: FluxOR thallium flux fluorescence, at 10 µM, hits give low values, zero marks the 3-SD hit cutoff
About 180 (7.5%) of roughly 2,400 compounds were called active. The entries come from a sample that favours actives as a whole.
Record form. Attribute: activity change vs negative control. Fill in for each entry.

COMPOUND: CCOC(=O)C1=C(N)Oc2cc(O)ccc2C1c1cccnc1 (stereo unspecified)
activity change vs negative control: -1.7% (active)
--
COMPOUND: CN(C)c1ccc(NC(=O)CCCc2ccccc2)cc1
activity change vs negative control: 29.6% (inactive)
--
COMPOUND: O=c1cc(-c2ccccc2)cc(-c2ccccc2)n1O
activity change vs negative control: 72.2% (inactive)
--
COMPOUND: CCOC(=O)c1n[nH]n2c1nc(=S)c1ccccc12
activity change vs negative control: 77.4% (inactive)
--
COMPOUND: COC(=O)c1ccc(C2C(C#N)=C(N)Oc3cc(O)ccc32)cc1 (stereo unspecified)
activity change vs negative control: 12.7% (inactive)
--
COMPOUND: COCCn1c(SCC(=O)Nc2cc(C)cc(C)c2)nc2ccccc2c1=O
activity change vs negative control: 12% (inactive)
--
COMPOUND: COC(=O)CSc1nnc(COc2ccc3ccccc3c2)o1
activity change vs negative control: 11.8% (inactive)
--
COMPOUND: CCCn1c(SCN2C(=O)c3ccccc3C2=O)nc2cc(Cl)ccc2c1=O
activity change vs negative control: 50.5% (inactive)

Please give activity change vs negative control for each item listed below.
1. CCOC(=O)C1=NN(C(=O)c2ccccc2)C(O)(c2ccc(C)cc2)C1 (stereo unspecified)
2. Cc1nn(Cc2ccccc2)c2c1C(c1cccnc1)C(C#N)=C(N)O2 (stereo unspecified)
3. Cc1ccc(CNC(=O)C2=CCN(S(=O)(=O)c3ccc(C)cc3)CC2)cc1

32% (inactive)
12.9% (inactive)
6.4% (inactive)

###

TARGET_OF_ASSAY: Potassium voltage-gated channel subfamily KQT member 2 (Rattus norvegicus) (UniProt O88943)
TEST_DESCRIPTION: KCNQ2 blockade in CHO cells – cell-based, FluxOR thallium flux, counter-screen for hERG block protector project, confirmation (AID 1946)
EXPERIMENTAL_CONDITIONS: FluxOR thallium flux fluorescence, at 10 µM, hits give low values, zero marks the 3-SD hit cutoff
In all, about 2,400 compounds went through this assay and about 180 (7.5%) were called active. This excerpt belongs to a sample that is enriched for actives.
METRIC_NAME: activity change vs negative control (%)
Answers are plain numbers, in %.

Completed entries (count: 4):
COMPOUND: O=C(CCN1C(=O)/C(=C/c2cccs2)SC1=S)Nc1cccc(C(=O)O)c1
activity change vs negative control / %: 5.2
//
COMPOUND: C=CCN(c1ccc(C(=O)NC(C)C)cc1)S(C)(=O)=O
activity change vs negative control / %: -2.3
//
COMPOUND: Nc1nc(O)c(N=Nc2ccc(S(N)(=O)=O)cc2)c(=O)[nH]1
activity change vs negative control / %: -2
//
COMPOUND: O=C(/C=C/Nc1ccc(F)c(F)c1)c1cccs1
activity change vs negative control / %: -2.9

Please give activity change vs negative control for each item listed below.
1. Cc1ccc(C(=O)O)cc1-c1ccc(/C=C2\SC(=O)N(CC(=O)Nc3ccccc3)C2=O)o1
2. Cc1ccccc1NC(=O)CN1C(=O)S/C(=C\c2ccc(-c3cc(C(=O)O)ccc3C)o2)C1=O
3. O=C1NC(=O)/C(=C/c2cc3c(cc2Br)OCO3)S1
4. CC(=O)/C=C1/C(=O)Nc2ccccc21
5. Cc1c(/C=C2\SC(=O)N(CC(=O)Nc3ccc4c(c3)OCO4)C2=O)c2ccccc2n1C

1.7
10.7
-0.8
-4.4
8

###

TARGET_OF_ASSAY: Potassium voltage-gated channel subfamily KQT member 2 (Rattus norvegicus) (UniProt O88943)
TEST_DESCRIPTION: KCNQ2 blockade in CHO cells – cell-based, FluxOR thallium flux, counter-screen for hERG block protector project, confirmation (AID 1946)
EXPERIMENTAL_CONDITIONS: FluxOR thallium flux fluorescence, at 10 µM, hits give low values, zero marks the 3-SD hit cutoff
The campaign covered roughly 2,400 compounds. About 180 (7.5%) were called active. Many of the other results were omitted from the sample, so actives are more common in it than they were.
API: label(entry) gives label 1 if the entry's activity change vs negative control is strictly smaller than 20%; on equality or larger values it gives label 0.

# example entries with known answers
COMPOUND: CC(/C=C1\SC(=S)N(NS(=O)(=O)c2ccccc2)C1=O)=C\c1ccccc1
CLASS: label 0

COMPOUND: CCn1cc(C(=O)NCCN(C)C)c(=O)c2cc(F)c(N3CCN(C)CC3)cc21
CLASS: label 1

Does the reported activity change vs negative control of the following compound sit strictly below 20%? Cc1ccc2[nH]c(=O)c(C(c3nnnn3C3CCCC3)N3CCCc4ccccc43)cc2c1 (stereo unspecified) label 0

Does the reported activity change vs negative control of the following compound sit strictly below 20%? Cc1ccc(/C=N/NC(=O)c2cc(-c3ccncc3)nc3ccccc23)o1 label 1

Does the reported activity change vs negative control of the following compound sit strictly below 20%? O=C(NC(=S)Nc1ccc(C(F)(F)F)cc1)c1csnn1 label 0

Does the reported activity change vs negative control of the following compound sit strictly below 20%? O=C(NNc1nc2c(F)cccc2s1)c1cc(=O)c2ccccc2o1 label 1

Does the reported activity change vs negative control of the following compound sit strictly below 20%? O=C(NC(=S)Nc1ccccc1Cl)c1ccco1 label 0

Does the reported activity change vs negative control of the following compound sit strictly below 20%? CC(C)(C)c1ccc(C(=O)CC(=O)c2cc(Cl)ccc2O)cc1 label 1

Does the reported activity change vs negative control of the following compound sit strictly below 20%? CC(Oc1ccc(Br)cc1Br)C(=O)Nc1cccnc1 (stereo unspecified) label 1

Does the reported activity change vs negative control of the following compound sit strictly below 20%? O=C(NC(=S)Nc1ccccn1)c1cc(-c2ccccc2)nc2ccccc12 label 1

Does the reported activity change vs negative control of the following compound sit strictly below 20%? O=C(N/N=C/c1ccccn1)c1cc(-c2ccc(Br)cc2)nc2ccccc12 label 1
